# System: A549/TR
# method_notes: Antiproliferative activity against human A549/Taxol cells assessed as inhibition of cell growth incubated for 48 hrs by MTT assay
# Format: functional, cell-based
pIC50: −log10 of the molar value.
quantity_kind: pIC50

• O=C(/C=C\COc1no[n+]([O-])c1S(=O)(=O)c1ccccc1)Oc1cccc2c1Oc1cccc(c1)CCc1ccc(O)c(c1)Oc1ccc(cc1)CC2 = < 4.70
• O=S(=O)(c1ccccc1)c1c(OCCCCCCOc2ccc3cc2Oc2ccc(cc2)CCc2cccc(OCCCCCCOc4no[n+]([O-])c4S(=O)(=O)c4ccccc4)c2Oc2cccc(c2)CC3)no[n+]1[O-] = < 4.70

Moving on to the next molecule.
For the molecule O=S(=O)(c1ccccc1)c1c(OCCCCOc2cccc3c2Oc2cccc(c2)CCc2ccc(O)c(c2)Oc2ccc(cc2)CC3)no[n+]1[O-] , the measured pIC50 on A549/TR was 5.23

// data source = ChEMBL document CHEMBL6103624
